Field: inhibition. Provide a value for each of the compounds that follow.
biological target: G protein-coupled receptor kinase 6 (Homo sapiens) (UniProt P43250); conditions: at 0.1 µM;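 also: mean percent inhibition of GRK6, GSK PKIS screen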
Sequence (P43250 whole entry, looked up): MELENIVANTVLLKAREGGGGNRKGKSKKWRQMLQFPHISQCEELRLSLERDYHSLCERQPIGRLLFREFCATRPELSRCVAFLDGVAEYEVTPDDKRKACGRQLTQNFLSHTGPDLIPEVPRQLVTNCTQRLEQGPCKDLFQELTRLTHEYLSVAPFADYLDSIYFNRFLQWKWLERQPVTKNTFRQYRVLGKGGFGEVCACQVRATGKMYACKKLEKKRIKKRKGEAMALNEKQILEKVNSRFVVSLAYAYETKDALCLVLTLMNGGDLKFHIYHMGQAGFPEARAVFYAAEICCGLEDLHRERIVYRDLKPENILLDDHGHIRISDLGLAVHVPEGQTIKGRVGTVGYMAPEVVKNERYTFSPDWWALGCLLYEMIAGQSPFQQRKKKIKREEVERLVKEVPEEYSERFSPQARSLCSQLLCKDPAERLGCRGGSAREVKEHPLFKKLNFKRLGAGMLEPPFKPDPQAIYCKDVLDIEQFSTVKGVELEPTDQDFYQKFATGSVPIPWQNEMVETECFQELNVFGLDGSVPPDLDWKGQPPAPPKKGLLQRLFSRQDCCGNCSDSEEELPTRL
Hi! Could you send only the number? It should be in %, unit omitted.

## Task Give the measured inhibition of "O=C(Nc1ccc(Oc2ccc3[nH]c(NC(=O)c4ccccc4)nc3c2)cc1)Nc1cc(C(F)(F)F)ccc1F" .
## Result 2.58

## Task Please give the result for "O=C(Nc1n[nH]c2nc(-c3ccc(O)cc3)c(Br)cc12)C1CC1" too.
## Result 11.6

## Task Follow-up entry: "COc1ccc2ncn(-c3cc(O[C@H](C)c4ccccc4Cl)c(C(N)=O)s3)c2c1"
## Result -0.3

## Task Also check "NCc1ccc(-n2c(-c3nonc3N)nc3cnccc32)cc1"
## Result 5.51

## Task Continue with "COc1cc(Nc2ncc(-c3ccccc3)o2)cc(OC)c1OC"
## Result -1.02

* * *

target: Inhibitor of nuclear factor kappa-B kinase subunit epsilon (Homo sapiens); conditions: at 1 µM;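 also: reported values are averaged percent inhibition figures against human IKKε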
measurement_name: inhibition (%)
The answer is to be given in %; state only the numeric part.

## Task Endpoint output: inhibition of "CS(=O)(=O)CCNCc1ccc(-c2ccc3ncnc(Nc4ccc(OCc5ccccc5)c(Br)c4)c3c2)o1" . Value?
## Result 4.71

## Task Also need "c1ccc(Oc2ccc(Nc3ncc(-c4ccccc4)o3)cc2)cc1" , thanks.
## Result 3.43

## Task Try "COc1cccc(/C=N/Nc2ncnc3c2cnn3-c2cccc(OC)c2)c1" next.
## Result 6.73

## Task Repeat with "COc1cc(Nc2ncc(-c3ccccc3)o2)cc(OC)c1OC"
## Result 1.15

* * *

Molecular target: NUAK family SNF1-like kinase 1 (Homo sapiens) (UniProt O60285)
Sequence (whole entry): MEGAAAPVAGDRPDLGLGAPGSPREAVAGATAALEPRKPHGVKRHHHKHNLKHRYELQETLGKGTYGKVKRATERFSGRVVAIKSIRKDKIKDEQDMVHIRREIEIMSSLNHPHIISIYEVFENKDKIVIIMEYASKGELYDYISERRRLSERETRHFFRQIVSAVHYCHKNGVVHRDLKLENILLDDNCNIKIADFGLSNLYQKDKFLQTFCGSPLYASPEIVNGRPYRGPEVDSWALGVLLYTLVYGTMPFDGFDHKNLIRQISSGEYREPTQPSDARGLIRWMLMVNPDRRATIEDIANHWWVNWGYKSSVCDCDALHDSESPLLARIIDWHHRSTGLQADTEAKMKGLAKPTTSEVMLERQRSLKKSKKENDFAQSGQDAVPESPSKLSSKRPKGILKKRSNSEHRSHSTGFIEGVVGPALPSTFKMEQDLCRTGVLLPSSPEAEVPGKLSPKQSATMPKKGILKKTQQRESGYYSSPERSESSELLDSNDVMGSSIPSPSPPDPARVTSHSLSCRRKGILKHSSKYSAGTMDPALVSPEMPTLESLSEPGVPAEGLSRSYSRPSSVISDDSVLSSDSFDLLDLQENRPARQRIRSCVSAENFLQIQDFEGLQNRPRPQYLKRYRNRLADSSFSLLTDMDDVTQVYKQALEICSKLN
Conditions: at 1 µM
Description: GSK_PKIS: ARK5 mean inhibition at 1 uM [Nanosyn]
Is inhibition at least 5%? Then class 1. If not, class 0.

## Task Could you please find out whether "Cc1ccc(C(=O)NC2CCC2)cc1-c1ccc(C(=O)NCC2CC2)cc1" has inhibition that meets 5% or exceeds it?
## Result class 1

## Task Ok, now "COc1cc(Nc2ncc(-c3ccccc3)o2)cc(OC)c1OC"
## Result class 1

## Task Try "FC(F)(F)c1cccc(Nc2nccc(-c3cnn4nc(-c5ccccc5)ccc34)n2)c1" next.
## Result class 0

## Task Same read-out for "O=C(Nc1n[nH]c2cc(-c3ccccc3)ccc12)C1CC1" ?
## Result class 0

## Task What about this molecule? "NC(=O)c1cc(-c2ccncc2)cc(-c2ccccc2)c1N"
## Result class 0

## Task Item: "c1ccc(Oc2ccc(Nc3ncc(-c4ccccc4)o3)cc2)cc1"
## Result class 1

## Task # repeat for "N#Cc1ccc(Oc2nccc(-c3c(-c4ccc(F)cc4)ncn3C3CCNCC3)n2)cc1"
## Result class 0

## Task Cool, now "CN(C)CCCNc1nccc(-c2c(-c3ccc(F)cc3)nn3cc(C(F)(F)F)ccc23)n1"
## Result class 1

## Task What do you get for "O=C1NC(=O)C(c2cccc(Cl)c2)=C1Nc1ccc(Cl)c(C(=O)O)c1" ?
## Result class 0

* * *

Answer each item with its documented inhibition.
biological target: Insulin-like growth factor 1 receptor (Homo sapiens) (UniProt P08069); conditions: at 1 µM;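 also: each value is a mean percent inhibition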
Sequence (P08069 31-736 limits assumed): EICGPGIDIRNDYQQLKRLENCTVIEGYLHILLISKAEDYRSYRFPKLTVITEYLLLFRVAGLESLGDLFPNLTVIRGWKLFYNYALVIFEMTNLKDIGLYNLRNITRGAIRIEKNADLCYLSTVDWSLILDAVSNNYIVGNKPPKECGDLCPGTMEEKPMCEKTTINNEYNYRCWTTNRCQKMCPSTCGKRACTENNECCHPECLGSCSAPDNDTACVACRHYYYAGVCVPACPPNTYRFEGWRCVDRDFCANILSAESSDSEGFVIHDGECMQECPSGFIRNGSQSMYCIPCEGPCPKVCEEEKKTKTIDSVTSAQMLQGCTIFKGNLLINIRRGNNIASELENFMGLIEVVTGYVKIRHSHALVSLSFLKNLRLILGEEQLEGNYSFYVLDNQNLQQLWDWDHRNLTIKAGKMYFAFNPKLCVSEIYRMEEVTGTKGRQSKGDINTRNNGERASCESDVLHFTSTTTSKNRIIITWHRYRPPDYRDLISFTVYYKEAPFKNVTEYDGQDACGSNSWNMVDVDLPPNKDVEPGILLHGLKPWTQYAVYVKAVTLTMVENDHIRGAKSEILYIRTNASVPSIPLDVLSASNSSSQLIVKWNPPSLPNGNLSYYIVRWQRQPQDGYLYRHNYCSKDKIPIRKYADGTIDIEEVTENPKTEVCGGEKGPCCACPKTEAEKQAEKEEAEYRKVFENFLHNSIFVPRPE
Sequence (P08069 741-1367 limits assumed): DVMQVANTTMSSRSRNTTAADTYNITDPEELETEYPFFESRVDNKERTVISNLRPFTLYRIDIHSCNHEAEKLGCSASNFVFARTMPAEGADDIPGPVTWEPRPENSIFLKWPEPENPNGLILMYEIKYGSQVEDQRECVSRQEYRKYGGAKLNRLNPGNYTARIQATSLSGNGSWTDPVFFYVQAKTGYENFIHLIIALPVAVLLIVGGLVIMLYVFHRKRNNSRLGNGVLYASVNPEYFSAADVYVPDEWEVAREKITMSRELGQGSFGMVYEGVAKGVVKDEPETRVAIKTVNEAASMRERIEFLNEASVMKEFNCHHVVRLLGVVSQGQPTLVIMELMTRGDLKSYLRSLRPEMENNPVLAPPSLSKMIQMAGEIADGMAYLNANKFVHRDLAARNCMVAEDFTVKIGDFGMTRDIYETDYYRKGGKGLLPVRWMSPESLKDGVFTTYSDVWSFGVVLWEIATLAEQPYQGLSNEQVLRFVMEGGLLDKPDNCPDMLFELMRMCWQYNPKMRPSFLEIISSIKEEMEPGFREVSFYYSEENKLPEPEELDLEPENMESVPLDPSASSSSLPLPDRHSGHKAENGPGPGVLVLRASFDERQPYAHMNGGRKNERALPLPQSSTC
The reply should contain only the number, in %.

## Task Value wanted: inhibition (Insulin-like growth factor 1 receptor (Homo sapiens) (UniProt P08069)) of entry "Fc1ccc(-c2ncn(C3CCNCC3)c2-c2ccnc(Oc3ccc(Oc4ccccc4)cc3)n2)cc1"
## Result 1.58

## Task One more compound: "COc1ccc(-c2ccc3c(NC(=O)C4CC4)n[nH]c3n2)cc1"
## Result 0.43

## Task Would you kindly repeat that for "CCc1ccc(Oc2nccc(-c3c(-c4ccc(F)cc4)ncn3C3CCNCC3)n2)cc1" ?
## Result 3.51

## Task Same thing, different compound: "CN(C)c1ccc2c(c1)/C(=C/Nc1ccc(S(N)(=O)=O)cc1)C(=O)N2"
## Result 11.9

## Task Another compound to look at: "COc1cccc(/C=N/Nc2ncnc3c2cnn3-c2cccc(OC)c2)c1"
## Result 1.32

## Task Repeat with "Fc1ccc(-c2c(-c3ccncc3)nc3n2CCS3)cc1"
## Result -5.03

## Task Item: "O=C(Nc1ccc(Oc2ccc3[nH]c(NC(=O)c4ccccc4)nc3c2)cc1)Nc1cc(C(F)(F)F)ccc1F"
## Result 7.91

## Task And the next one, "CCC(=O)Nc1ccc(C)c(-c2ccc(C(=O)NCC3CC3)cc2)c1" ?
## Result 1.32

## Task What about "NS(=O)(=O)c1ccc(N/N=C2\C(=O)Nc3ccc(-c4cnco4)cc32)cc1" ?
## Result -2.26

* * *

biological target: Ephrin type-B receptor 3 (Homo sapiens) (UniProt P54753); details: at 1 µM;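 also: values are mean percent inhibition of EPHB3 from the GSK PKIS screening panel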
Sequence (P54753 whole entry): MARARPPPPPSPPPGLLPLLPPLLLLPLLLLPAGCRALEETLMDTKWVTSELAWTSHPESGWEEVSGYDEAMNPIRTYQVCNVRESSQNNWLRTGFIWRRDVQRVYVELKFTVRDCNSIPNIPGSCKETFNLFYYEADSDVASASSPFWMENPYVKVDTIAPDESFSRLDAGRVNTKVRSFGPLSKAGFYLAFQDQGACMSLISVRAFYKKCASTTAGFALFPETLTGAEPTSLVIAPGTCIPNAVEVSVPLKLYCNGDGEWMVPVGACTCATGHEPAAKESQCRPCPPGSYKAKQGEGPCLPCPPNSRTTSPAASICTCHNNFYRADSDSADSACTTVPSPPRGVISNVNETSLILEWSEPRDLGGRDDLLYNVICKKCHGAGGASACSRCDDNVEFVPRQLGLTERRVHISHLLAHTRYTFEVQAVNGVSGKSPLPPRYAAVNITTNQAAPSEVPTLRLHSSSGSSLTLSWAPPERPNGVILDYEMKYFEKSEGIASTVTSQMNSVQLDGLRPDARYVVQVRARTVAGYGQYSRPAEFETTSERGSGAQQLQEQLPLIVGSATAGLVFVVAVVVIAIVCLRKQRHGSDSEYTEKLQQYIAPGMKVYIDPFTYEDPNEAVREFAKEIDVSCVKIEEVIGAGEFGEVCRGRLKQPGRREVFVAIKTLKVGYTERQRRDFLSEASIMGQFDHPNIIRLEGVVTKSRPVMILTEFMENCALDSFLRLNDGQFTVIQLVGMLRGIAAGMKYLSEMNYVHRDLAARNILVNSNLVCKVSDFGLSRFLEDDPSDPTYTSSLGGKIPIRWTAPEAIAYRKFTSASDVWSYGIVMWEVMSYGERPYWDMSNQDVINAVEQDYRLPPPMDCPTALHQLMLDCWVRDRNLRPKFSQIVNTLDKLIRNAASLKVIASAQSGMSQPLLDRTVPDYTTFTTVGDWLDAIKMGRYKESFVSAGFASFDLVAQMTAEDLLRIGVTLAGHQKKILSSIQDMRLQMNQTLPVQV
Answer each item with its documented inhibition.
Please reply with the bare figure in % and do not write the unit itself.

## Task Could you tell me which inhibition is on file for "COc1cc2ncn(-c3cc(OCCc4ccccc4)c(C(N)=O)s3)c2cc1OC" ?
## Result 2.11

## Task // same read-out, input: "O=C(Nc1n[nH]c2cc(-c3ccccc3)ccc12)C1CC1"
## Result 2.89

## Task Note, next up: "Fc1ccc(-c2ncn(C3CCNCC3)c2-c2ccnc(Oc3ccc4c(c3)OCO4)n2)cc1"
## Result 3.71

## Task Now the molecule "c1ccc(-c2n[nH]cc2-c2ccnc(-c3ccc(OCCN4CCOCC4)cc3)c2)nc1"
## Result -7.2

* * *

target: Tyrosine-protein kinase Fyn (Homo sapiens) (UniProt P06241); details: at 0.1 µM
Sequence (P06241 2-537 limits assumed): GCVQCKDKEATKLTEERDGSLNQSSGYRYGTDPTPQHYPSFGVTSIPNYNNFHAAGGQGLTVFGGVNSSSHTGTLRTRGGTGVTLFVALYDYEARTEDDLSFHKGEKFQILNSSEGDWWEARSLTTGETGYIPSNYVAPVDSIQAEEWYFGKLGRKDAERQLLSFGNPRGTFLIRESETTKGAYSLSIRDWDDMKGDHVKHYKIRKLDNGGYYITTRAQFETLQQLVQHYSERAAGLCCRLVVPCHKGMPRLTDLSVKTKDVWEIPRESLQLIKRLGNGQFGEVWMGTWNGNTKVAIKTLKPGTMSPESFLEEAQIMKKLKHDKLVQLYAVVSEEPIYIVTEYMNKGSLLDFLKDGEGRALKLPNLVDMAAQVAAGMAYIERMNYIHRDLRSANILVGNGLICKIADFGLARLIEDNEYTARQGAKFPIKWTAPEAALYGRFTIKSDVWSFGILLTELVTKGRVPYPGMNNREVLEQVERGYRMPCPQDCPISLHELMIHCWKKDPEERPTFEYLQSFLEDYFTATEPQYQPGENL
Description: GSK_PKIS: FYN mean inhibition at 0.1 uM [Nanosyn]
Could you please report measured inhibition for the items listed next?
The reply should contain only the number, in %.

## Task Provide the documented inhibition with Tyrosine-protein kinase Fyn (Homo sapiens) (UniProt P06241) as the system for "COc1ccc(-c2ccc3c(NC(=O)C4CC4)n[nH]c3n2)cc1"
## Result 1.9

## Task Okay, and "Clc1ccc(CNc2nccc(-c3cnn4ncccc34)n2)cc1" ?
## Result -1.29

## Task "N#Cc1ccc(Oc2nccc(-c3c(-c4ccc(F)cc4)ncn3C3CCNCC3)n2)cc1" , same question.
## Result -0.87

## Task // repeat for "COc1cccc(-n2cnc3c(N/N=C/c4ccncc4)ncnc32)c1" and report
## Result -0.06

## Task Next up: "NC(=O)c1ccc(Oc2nccc(-c3c(-c4ccc(F)cc4)ncn3C3CCNCC3)n2)cc1"
## Result 2.66

## Task Follow-up item: Nc1nccc(-c2c(-c3ccc(F)cc3)ncn2C2CCC(O)CC2)n1 (configuration not stated)
## Result 1.57

## Task Now this one: "COc1cccc(/C=N/Nc2ncnc3c2cnn3-c2cccc(OC)c2)c1"
## Result 2.39

## Task Item: "CN(c1ccc(NC(=O)Nc2c(Cl)cccc2Cl)cc1)c1ccnc(Nc2cccc(CS(C)(=O)=O)c2)n1"
## Result 2.74

## Task And the next one, "O=C(Nc1n[nH]c2nc(-c3ccc(O)cc3)c(Br)cc12)C1CC1" ?
## Result 5.98

## Task Next molecule up: "CCc1nccc2c1nc(-c1nonc1N)n2CC"
## Result 2.96

## Task What would you report for "CCS(=O)(=O)c1ccc(OC)c(Nc2ncc(-c3cccc(-c4ccccc4F)c3)o2)c1" ?
## Result 47.1

## Task Also, "c1ccc(Oc2ccc(Nc3ncc(-c4ccccc4)o3)cc2)cc1" please.
## Result 0.57

* * *

target: Mitogen-activated protein kinase 1 (Homo sapiens) (UniProt P28482); conditions: at 1 µM;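 also: values are mean inhibition, from the GSK PKIS collection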
Sequence (P28482 whole entry): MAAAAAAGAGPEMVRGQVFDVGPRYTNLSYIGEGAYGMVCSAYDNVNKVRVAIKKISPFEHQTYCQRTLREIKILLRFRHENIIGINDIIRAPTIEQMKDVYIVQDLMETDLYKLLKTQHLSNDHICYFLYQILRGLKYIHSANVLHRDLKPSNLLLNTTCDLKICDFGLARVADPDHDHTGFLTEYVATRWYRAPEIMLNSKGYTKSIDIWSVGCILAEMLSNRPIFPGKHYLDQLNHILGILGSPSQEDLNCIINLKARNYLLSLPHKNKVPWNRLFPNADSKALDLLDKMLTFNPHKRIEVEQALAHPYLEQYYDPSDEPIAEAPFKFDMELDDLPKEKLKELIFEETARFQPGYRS
measurement_name: inhibition (%)
Only the number, expressed in %, is required.

## Task Fill in the blank: the reported inhibition of "COc1cc2ncn(-c3cc(OCCc4ccccc4)c(C(N)=O)s3)c2cc1OC" is ____.
## Result 3.64

## Task Try this compound next: "CNC(=O)c1cncc(/C=C/c2c(C)cccc2C)c1"
## Result 0.43

## Task Repeat with "O=C(Nc1n[nH]c2nc(-c3ccc(O)cc3)c(Br)cc12)C1CC1"
## Result 10.1

## Task Would you kindly repeat that for "O=C(Nc1n[nH]c2nc(-c3ccco3)ccc12)C1CC1" ?
## Result 0.76

## Task "COc1ccc2ncn(-c3cc(O[C@H](C)c4ccccc4Cl)c(C(N)=O)s3)c2c1" , same question.
## Result 4.54

## Task Now this one: "FC(F)(F)c1cccc(Nc2nccc(-c3cnn4nc(-c5ccccc5)ccc34)n2)c1"
## Result 3.46

## Task Entry to check: "COc1ccc2cc(-c3c(-c4ccncc4)nc(-c4ccc(S(C)(=O)=O)cc4C)n3C)ccc2c1"
## Result 5.44

## Task "NC(=O)c1ccc(Oc2nccc(-c3c(-c4ccc(F)cc4)ncn3C3CCNCC3)n2)cc1" ?
## Result 6.64

## Task Subsequent entry: "COc1cc(Nc2ncc3c(C)nc(-c4cccc(C(F)(F)F)c4)n3n2)cc(OC)c1OC"
## Result 13

## Task Also check "CN1CCN(CCCNc2nc3ccc(Oc4ccc(NC(=O)Nc5cc(C(F)(F)F)ccc5F)cc4)cc3[nH]2)CC1"
## Result 0.12

## Task # repeat for "CCC(=O)Nc1ccc(C)c(-c2ccc(C(=O)NCC3CC3)cc2)c1"
## Result 4.25

## Task Would you mind doing "CN(c1ccc(NC(=O)Nc2c(Cl)cccc2Cl)cc1)c1ccnc(Nc2cccc(CS(C)(=O)=O)c2)n1" as well?
## Result 2.83

## Task Now consider "COC(=O)Nc1nc2ccc(Sc3ccc(NC(=O)Nc4cc(C(F)(F)F)ccc4F)cc3)cc2[nH]1" .
## Result -0.71

## Task Next compound up: "COc1cc(Nc2ncc3c(C)nc(-c4cccc(Oc5ccccc5)c4)n3n2)cc(OC)c1OC"
## Result 8.58

## Task Continue with "O=C(Nc1n[nH]c2cc(-c3ccccc3)ccc12)C1CC1"
## Result 6.01

## Task Field entry: "CS(=O)(=O)CCNCc1cc(-c2cc3c(Nc4ccc(OCc5cccc(F)c5)c(Cl)c4)ncnc3s2)cs1"
## Result 7.79

## Task Moving on to the next compound: "O=C(Nc1ccc(Oc2ccc3[nH]c(NC(=O)c4ccccc4)nc3c2)cc1)Nc1cc(C(F)(F)F)ccc1F"
## Result 2.7

## Task Another compound to look at: COc1ccc2cc(-c3c(-c4ccncc4)nc(-c4ccc([S+](C)[O-])cc4C)n3C)ccc2c1 (stereo not given)
## Result -2.44

## Task Item: "COc1cc2ncn(-c3cc(OCc4ccccc4C(F)(F)F)c(C(C)=O)s3)c2cc1OC"
## Result 5.81

## Task Now the compound "Cc1ccc(NC(=O)c2ccoc2)cc1-c1ccc(C(=O)NCC2CC2)cc1"
## Result 3.37
